These data points were gathered from PubChem BioAssay (NCI).

procedureText: NCI Yeast Anticancer Drug Screen. Data for the rad50 strain (AID 155);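 note: 0% = growth of vehicle-only cultures of the same strain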
appliedConditions: S. cerevisiae rad50 strain growth inhibition; at 5.0 µM (retest, dose inferred, filed as 0.5); hits give high values
This is part of a sample that, as a whole, favours compounds with a hit. Of some 79,000 tested, about 15% had one in any assay.
The following molecules are listed with their measured growth inhibition values.
Your answer is read as %, so omit the unit and give the number.

Here are 8 molecules together with their reported answers.
[[record]]
molecule = "CCC(=O)c1cccc2ccccc12"
recordednumber = -14

[[record]]
molecule = "CC(C)c1ccccc1NC(=O)/C(Cl)=C(\\Cl)C(=O)O"
recordednumber = 0

[[record]]
molecule = "Cc1ccc(C2C(Cl)C(=O)N2n2cnc3ccccc3c2=O)cc1 (stereo not given)"
recordednumber = 14

[[record]]
molecule = "CCCCCCCCCCCCCCCCCCNC"
recordednumber = 34

[[record]]
molecule = "O=C(NCCCCCCCN1CCCCCCC1)C(C1CCCCC1)C1CCCCC1"
recordednumber = 35

[[record]]
molecule = "NC(=NCc1ccccc1)N/N=C\\c1ccnc2ccccc12"
recordednumber = -2

[[record]]
molecule = "CC[n+]1ccc2c(C)c3[nH]c4ccc(O)cc4c3c(C)c2c1"
recordednumber = 58

[[record]]
molecule = "COC(=O)C1=C(C)NC(C)=C(C(=O)OCCCN2CCC(c3ccccc3)(c3ccccc3)CC2)C1c1cccc([N+](=O)[O-])c1 (stereo not given)"
recordednumber = 37


Requested read-out: growth inhibition. Entry: CC(C(=O)N1C(=O)N(C(=O)[C@H](C)C(O)c2ccccc2)[C@H](c2ccccc2)[C@H]1c1ccccc1)[C@@H](O)c1ccccc1 (stereo not given in full)
-5

----------
procedureText: NCI Yeast Anticancer Drug Screen. Data for the rad18 strain (AID 177)
appliedConditions: S. cerevisiae rad18 mutant growth inhibition; at 33.0 µM; hits give high values
The panel holds about 79,000 compounds, 15% with a hit somewhere; the sample as a whole holds those more often.
Recorded growth inhibition determines the label; the label ranges are low end (below 20%), middle (20% to below 80%), high end (80% or more)

[[record]]
compound = "Nc1ccccc1CC(O)C(=O)O (centres undefined)"
cat = "middle"

[[record]]
compound = "CC1=C(SCCO)C(=O)c2ccccc2C1=O"
cat = "middle"


Class? Entry: COc1ccc(C2c3cc4c(cc3OC(C)(O)C2C)OCO4)c(OC)c1 (centres undefined)
low end

Textbook exercise: identify the category of the compound given here, CN(C)Cc1cc(N=Nc2ccc(Cl)cc2)cc(CN(C)C)c1O , according to its measured value.
low end

Which bin, given its growth inhibition, does O=C1C=CC(=O)N1c1ccc2c(c1)Cc1cc(NC(=O)C(F)(F)F)ccc1-2 occupy?
middle

Assign a category based on measured growth inhibition for Cc1ccc2[nH]c3c(C)c4cc[n+](C)cc4c(C)c3c2c1 and give only the class name.
middle

----------
procedureText: NCI Yeast Anticancer Drug Screen. Data for the rad50 strain (AID 155);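 note: 0% = growth of vehicle-only cultures of the same strain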
appliedConditions: S. cerevisiae rad50 strain growth inhibition; at 50.0 µM; hits give high values
This is part of a sample that, as a whole, favours compounds with a hit. Of some 79,000 tested, about 15% had one in any assay.
Entries annotated with measured growth inhibition
Answer in %, number only, no unit symbol.

[[record]]
compound = "CCc1ccc(NS(=O)(=O)c2ccccc2)c([N+](=O)[O-])c1"
measuredproperty = "growth inhibition"
recordednumber = 37.2

[[record]]
compound = "O=C1c2ccccc2-c2nc3ccccc3nc21"
measuredproperty = "growth inhibition"
recordednumber = -20.6

[[record]]
compound = "CSc1nc(=S)[nH]c2c1c(C)nn2-c1ccccc1"
measuredproperty = "growth inhibition"
recordednumber = 50.8

[[record]]
compound = "CC1(C)[C@@H]2CC[C@]1(C)[C@H](OC(=O)CSC#N)C2"
measuredproperty = "growth inhibition"
recordednumber = 99


# input compound: Cc1c(C2=C(Br)C(=O)N(C)C2=O)c(=O)n(C)c(=O)n1C ; wanted: its growth inhibition
81.9

Requested read-out: growth inhibition. Entry: Cc1cc(CO)c(O)c(CNCc2cc(C)cc(CO)c2O)c1
89.5

// returns reported growth inhibition for input NNC(=O)CCc1ccc2ccc3ccccc3c2c1
28.1
